system: IGROV-1; experiment: NCI tumour cell line growth inhibition, 48 h
Calls of active or inactive are those of the source. Rule as the data show it: active = GI50 up to about 1.1 µM and inactive = higher.
Outcome codes: true for active, false for inactive

molecule	tgt	class
CC1(C)OC2OC(COC(=O)c3ccc(C#N)cc3)C3OC(C)(C)OC3C2O1 (stereo not given)	IGROV-1	false
CC(C)(C)C1CCC2c3c([nH]c4ccccc34)C3C(=O)N(c4cccc([N+](=O)[O-])c4)C(=O)C3C2C1 (stereo not given)	IGROV-1	false
CN1CCCc2nc3ccccc3n2C1	IGROV-1	false
CCCOc1ccc(/C(Cl)=C(\C=O)c2ccc(OC)c(OC)c2)cc1OCCC	IGROV-1	false
CC(C)=CCC/C(C)=C/CCC1(C)C=Cc2c(c3ccccc3oc2=O)O1 (stereo not given)	IGROV-1	false
COC1=CC(=O)c2c(O)c3c(c(O)c2C1=O)CC(C)(O)OC3 (stereo not given) [FUSARUBIN]	IGROV-1	false
CN1CCN(c2ccc3[nH]c(-c4ccc5[nH]c(-c6ccc(N(C)CCCl)cc6)nc5c4)nc3c2)CC1	IGROV-1	true
COc1ccc([N+](=O)[O-])c2c(NCC(O)CO)ccnc12 (stereo not given)	IGROV-1	false
N#CCCN(C(=O)Nc1ccccc1)[C@H]1CCCC[C@@H]1N(C(=O)Nc1ccccc1)c1ccccc1	IGROV-1	false
O=C(c1cc2c(c3ccccc13)NCCN=C2C(F)(F)F)C(F)(F)F	IGROV-1	false
Clc1ccc(Cc2nc3ccccc3nc2-c2cccc(Cl)c2)cc1	IGROV-1	false
O=[N+]([O-])c1ccc2c(c1)c(OCc1ccccc1)nn2Cc1ccccc1	IGROV-1	false
O=C(O)CCC[C@]1(O)O[C@@]2(CCCC2=O)[C@]2(O)CCC[C@@]21O	IGROV-1	false
Cc1n[nH]/c(=N\S(=O)(=O)c2ccc(/N=N/c3c(O)c(C(=O)O)cc4ccccc34)cc2)s1	IGROV-1	false
O[C@@]12Cc3c([nH]c4ccccc34)[C@@H]3Oc4cccc5c4[C@@]31CCN(CC1CC1)[C@@H]2C5	IGROV-1	false
CN(CCO)CCCC1COc2ccccc2O1 (stereo not given)	IGROV-1	false
Cn1c2ccc([N+](=O)[O-])cc2c(=O)c2c(O)cc(O)cc21	IGROV-1	false
CCN(CC)CCn1ccc(=O)c2cc3c(=O)ccn(CCN(CC)CC)c3c(C)c21	IGROV-1	false
c1ccc(NN(Cc2cnccn2)c2ccccc2)cc1	IGROV-1	false
COC1=C2CC(C)CC(OC)C(O)C(C)/C=C(\C)C(OC(N)=O)C(OC)/C=C\C=C(/C)C(=O)NC(=C(/C=N/C(C)(C)C)C1=O)C2=O (stereo not given)	IGROV-1	false
CSc1c(C#N)c(N)nc2c(/N=N\c3ccc(Br)cc3)c(N)nn12	IGROV-1	false
COC(=O)C(C)(C)OCc1ccc(C2NC(=O)N(c3cccc(Cl)c3)C(=O)N2c2cccc(Cl)c2)cc1 (stereo not given)	IGROV-1	false
COc1ccccc1NC(=S)Nc1cc(C)cc(C)n1	IGROV-1	false
Cc1cccc(C)c1NC(=O)C(=O)C(C#N)c1ccccc1 (stereo not given)	IGROV-1	false
Cc1ccccc1N/N=C1\C(=O)Nc2ccccc21	IGROV-1	true
CNC1=C(C)C(=O)C2=C(C1=O)C(COC(N)=O)C1(OC)C3NC3CN21 (stereo not given)	IGROV-1	false
CC(C)CNP(=O)(NCC(C)C)Oc1ccc(CC(NC(=O)OCc2ccccc2)C(=O)OCc2ccccc2)cc1 (stereo not given)	IGROV-1	false
CC1=NN(C(=O)Cc2ccccc2)C(=O)/C1=C\c1ccccc1O	IGROV-1	false
CC1=C(N2CC2)C(=O)C(C)=C(N2CC2)C1=O	IGROV-1	true
CN(C)c1ccc(C(=NN)c2ccc(N(C)C)cc2)cc1	IGROV-1	true
CC[C@]12C=CCN3CC[C@@]4(c5cc(Br)c(OC)cc5N(C)[C@H]4[C@@](O)(C(=O)NC(Cc4c[nH]c5ccccc45)C(=O)OC)[C@@H]1O)[C@@H]32 (stereo not given in full)	IGROV-1	false
CCOC(=O)[C@H](C)OC(=O)[C@@](C)(NC(=O)c1ccccc1C(=O)OC)[C@@H]1NC=C(C(=O)OC)CS1	IGROV-1	false
COc1ccc(/N=N/C(=N/NC(=O)c2ccc(C)cc2)c2ccc(N(CCC#N)CCC#N)cc2OC)cc1	IGROV-1	false
O=S(=O)(c1ccc(NC(=S)N/N=C/c2ccccc2O)cc1)N1CCCCC1	IGROV-1	false
CSc1ncc2c(n1)sc1c(=O)n(-c3ccccc3)cnc12	IGROV-1	false
CC1OC(OCC2OC(Oc3ccc(C4CC(=O)c5c(O)cc(O)cc5O4)cc3O)C(O)C(O)C2O)C(O)C(O)C1O (stereo not given)	IGROV-1	false
CCSc1nc(N/N=C/c2cccs2)c2cnn(CO)c2n1	IGROV-1	false
CC1(C)N=C(N)N=C(N)N1c1ccc(OCC(=O)Nc2cccc(S(=O)(=O)F)c2)c(Cl)c1	IGROV-1	false
CC(C)(C)OC(=O)n1c(Cl)c(C=O)c2ccccc21	IGROV-1	false
Cc1ccc2c(O)c3c(cc2c1)C(=O)c1c2c(cc(O)c1C3=O)C1(C)OC(O2)C(O)C(N(C)C)C1O (stereo not given)	IGROV-1	true

----------
tested on: NCI-H226; test: NCI tumour cell line growth inhibition, 48 h
The source made the active and inactive calls. Cut-off read from the data, not from the text of the source: active = GI50 up to about 1.1 µM and inactive = higher.
outcome measure: GI50

In [3]: df
Out[3]:
                                    compound       tgt  outcome_measure             measured
 0       Nc1nc2c(ncn2Cc2ccccc2CCO)c(=O)[nH]1  NCI-H226             GI50     41 µM (inactive)
 1            O=c1c2cc(Br)ccc2oc2ccc(Br)cc12  NCI-H226             GI50  > 100 µM (inactive)
 2          O=S1(=O)OCCOS(=O)(=O)C1Cc1ccccc1  NCI-H226             GI50   46.1 µM (inactive)
 3  CC(C)(C)C1CC[C@H]2c3c([nH]c4ccc(Br)cc34)[C@H]3C(=O)N(c4ccccc4)C(=O)[C@H]3[C@H]2C1 (stereo partly specified)  NCI-H226             GI50   35.2 µM (inactive)
 4  CC(=O)C1=C(C)N2C(=NC3=C(CCc4ccccc43)C2c2ccc(Cl)cc2)S1 (stereo unspecified)  NCI-H226             GI50  > 100 µM (inactive)
 5  O=C(/C=C/c1ccc(O)c(O)c1)OCCc1cccc2ccccc12  NCI-H226             GI50     22 µM (inactive)
 6  CCCCCCC(O)CC[C@H]1CCC[C@@H](C)N1 (stereo partly specified)  NCI-H226             GI50  > 100 µM (inactive)
 7  Cc1c(F)c(N)c2c(=O)cc(-c3ccc(N)c(F)c3)oc2c1F [AMINOFLAVONE]  NCI-H226             GI50   3.52 µM (inactive)
 8   CSc1c(C#N)c(=O)n(N)c2c1c(C)nn2-c1ccccc1  NCI-H226             GI50   24.8 µM (inactive)
 9  O=C1N/C(=N/N=C/c2c[nH]c3ccccc23)N/C1=C\c1cccs1  NCI-H226             GI50  > 100 µM (inactive)
10                  CNc1ccc2c(c1)Cc1ccccc1-2  NCI-H226             GI50     78 µM (inactive)
11    OC1(c2ccccc2)CCN(Cc2c[nH]c3ccccc23)CC1  NCI-H226             GI50  > 100 µM (inactive)
12  CC1(C#N)CC(C)(C)C(/C=C2/CC(C)(C)C(/C=C3/OC(=N)CC3(C)C)=N2)=N1 (stereo unspecified)  NCI-H226             GI50   40.6 µM (inactive)
13  Cc1ccc2nc(NC(=O)C(=O)C(C(=O)c3ccc4ccccc4c3)C3OC(=O)c4ccccc43)sc2c1 (stereo unspecified)  NCI-H226             GI50    2.1 µM (inactive)
14  O=C(O)CCC[C@]1(O)O[C@@]2(CCCC2=O)[C@]2(O)CCC[C@@]21O  NCI-H226             GI50  > 100 µM (inactive)
15  O=[N+]([O-])c1ccc2c(c1)c(OCc1ccccc1)nn2Cc1ccccc1  NCI-H226             GI50  > 100 µM (inactive)

----------
tested on: T47D; experiment: NCI tumour cell line growth inhibition, 48 h
Active and inactive are the calls of the source. No stated cut-off is given here; in the data, active = GI50 up to about 1.1 µM and inactive = higher.
outcome measure: GI50

compound	outcome measure	measured
CSc1ncc2c(n1)sc1c(=O)n(-c3ccccc3)cnc12	GI50	> 100 µM (inactive)
CC1=C(O)C(=O)C2=C(C1=O)[C@@H]([C@@H](C)C/C=C/C(C)(C)O)CC[C@@H]2C	GI50	27.2 µM (inactive)
O=C1c2c(O)cc(O)cc2C(C2OC(CO)C(O)C(O)C2O)c2cc(CO)cc(O)c21 (centres undefined)	GI50	> 100 µM (inactive)
C=C(C)[C@@H]1CC[C@]2(C(=O)OC)CC[C@]3(C)[C@H](CC[C@@H]4[C@@]5(C)CC[C@H](O)C(C)(C)[C@@H]5CC[C@]43C)[C@@H]12 [METHYL BETULINATE]	GI50	12 µM (inactive)
